Reported human MASP2 IC50 is given for each of the following binders.
Target: recombinant human MASP2 active protease (amino acids 297-686, C-terminal His Tag) (human, UniProt O00187 297-686)
Sequence (O00187 other isoform, or with tags, fused parts or gaps limits assumed): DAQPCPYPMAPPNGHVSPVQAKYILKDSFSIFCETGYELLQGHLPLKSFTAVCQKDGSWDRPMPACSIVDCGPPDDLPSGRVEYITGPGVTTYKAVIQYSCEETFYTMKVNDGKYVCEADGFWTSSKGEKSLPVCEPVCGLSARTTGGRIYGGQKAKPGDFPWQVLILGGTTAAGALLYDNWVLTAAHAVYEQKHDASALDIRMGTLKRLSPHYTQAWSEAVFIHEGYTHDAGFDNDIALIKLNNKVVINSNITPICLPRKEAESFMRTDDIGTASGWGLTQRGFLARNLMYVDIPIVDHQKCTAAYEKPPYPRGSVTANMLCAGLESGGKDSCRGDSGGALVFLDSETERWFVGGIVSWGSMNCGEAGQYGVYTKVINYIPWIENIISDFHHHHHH
Assay: cell-based or functional assay
Bridge positions count the residues as written; N and C are the ends. Square brackets hold non-standard residues; d marks the D form. Ends that are not written are not given here. Oic = O=C(O)[C@@H]1C[C@@H]2CCCC[C@@H]2N1; Phe(2-Br) = N[C@@H](Cc1ccccc1Br)C(=O)O; tBuAla = CC(C)(C)C[C@H](N)C(=O)O; PEG4 = NCCOCCOCCOCCOCCC(=O)O; Pen = CC(C)(S)[C@H](N)C(=O)O; Sar = CNCC(=O)O
Value and unit, in that order.

{"binder": "[Sar]ICSRSLP[Oic]I[Pen]IP-NH2 (disulfide 3-11; also: TFA salt) [((N-Me)G)-IC+SRSLP-(Oic)-I-(Pen)+IP-NH2]", "measuredEndpoint": "human MASP2 IC50", "result": "69.6 nM"}
{"binder": "[Sar]ICSRS[tBuAla]PPI[Pen]IP[Sar][Sar][Sar]-NH2 (disulfide 3-11; N-terminus assumed; SMILES CC[C@H](C)[C@H](NC(=O)CNC)C(=O)N[C@H]1CSSC(C)(C)[C@@H](C(=O)N[C@H](C(=O)N2CCC[C@H]2C(=O)N(C)CC(=O)N(C)CC(=O)N(C)CC(N)=O)[C@@H](C)CC)NC(=O)[C@H]([C@@H](C)CC)NC(=O)[C@@H]2CCCN2C(=O)[C@@H]2CCCN2C(=O)[C@H](CC(C)(C)C)NC(=O)[C@H](CO)NC(=O)[C@H](CCCNC(=N)N)NC(=O)[C@H](CO)NC1=O) [((N-Me)G)-IC+SRS-((tBu)A)-PPI-(Pen)+IP-((N-Me)G)-((N-Me)G)-((N-Me)G)-NH2]", "measuredEndpoint": "human MASP2 IC50", "result": "47 nM"}

*Q* Given [Sar]ICSRS[tBuAla]PPI[Pen]IP[PEG4]-NH2 (disulfide 3-11; N-terminus assumed; SMILES CC[C@H](C)[C@H](NC(=O)CNC)C(=O)N[C@H]1CSSC(C)(C)[C@@H](C(=O)N[C@H](C(=O)N2CCC[C@H]2C(=O)NCCOCCOCCOCCOCCC(N)=O)[C@@H](C)CC)NC(=O)[C@H]([C@@H](C)CC)NC(=O)[C@@H]2CCCN2C(=O)[C@@H]2CCCN2C(=O)[C@H](CC(C)(C)C)NC(=O)[C@H](CO)NC(=O)[C@H](CCCNC(=N)N)NC(=O)[C@H](CO)NC1=O) [((N-Me)G)-IC+SRS-((tBu)A)-PPI-(Pen)+IP-(PEG3(16atoms))-NH2] , state its recorded human MASP2 IC50.
*A* 28 nM

*Q* Recorded human MASP2 IC50 of AICSRS[Phe(2-Br)]PPI[Pen]IPD-NH2 (disulfide 3-11; N-terminus assumed; SMILES CC[C@H](C)[C@H](NC(=O)[C@H](C)N)C(=O)N[C@H]1CSSC(C)(C)[C@@H](C(=O)N[C@H](C(=O)N2CCC[C@H]2C(=O)N[C@@H](CC(=O)O)C(N)=O)[C@@H](C)CC)NC(=O)[C@H]([C@@H](C)CC)NC(=O)[C@@H]2CCCN2C(=O)[C@@H]2CCCN2C(=O)[C@H](Cc2ccccc2Br)NC(=O)[C@H](CO)NC(=O)[C@H](CCCNC(=N)N)NC(=O)[C@H](CO)NC1=O) [AIC+SRS-((2-Bromo)F)-PPI-(Pen)+IPD-NH2] , please.
*A* 48 nM
